- subject-of-test: T1, His-tagged human B7-H3 (human, UniProt Q5ZPR3-2 29-245, limits assumed)
- T1 construct: Bought His-tagged protein coated on the ELISA plate; also called hu B7-H3; CD276
- T1 sequence (looked up): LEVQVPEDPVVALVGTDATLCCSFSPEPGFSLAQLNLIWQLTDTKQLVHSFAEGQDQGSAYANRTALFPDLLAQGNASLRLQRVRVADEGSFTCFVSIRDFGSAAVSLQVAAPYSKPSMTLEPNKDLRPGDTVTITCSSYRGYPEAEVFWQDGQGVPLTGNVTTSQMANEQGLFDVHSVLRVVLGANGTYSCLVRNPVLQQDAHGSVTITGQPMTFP
- procedure-summary: ELISA OD450 on hu B7-H3 over OD450 on mu B7-H3
metric-name: hu:mu ratio
The answer should be a number; do not append a unit.

Prompt: Which hu:mu ratio reading was recorded for the binder 40511p1.1.H10 (scFv, V domains shown, Tested as scFv-Fc (Expi293 supernatant)) VH: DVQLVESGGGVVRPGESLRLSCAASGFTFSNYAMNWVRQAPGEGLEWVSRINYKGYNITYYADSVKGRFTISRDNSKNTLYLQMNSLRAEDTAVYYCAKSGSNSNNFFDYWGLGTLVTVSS VL: EIVLTQSPGNLSLSPGERATLSCRASQSVGSQLGWYQQKPGQAPRLLIYGASTRATGIPDRFSGSGSGTEFALTISSLQSEDFAVYYCQQYYDWPPLTFGGGTKVEIK ?
Response: 4.64

Continuing:
Prompt: # hu:mu ratio lookup, item 40579p1.H7 (scFv, V domains shown, Tested as scFv-Fc (Expi293 supernatant)) VH: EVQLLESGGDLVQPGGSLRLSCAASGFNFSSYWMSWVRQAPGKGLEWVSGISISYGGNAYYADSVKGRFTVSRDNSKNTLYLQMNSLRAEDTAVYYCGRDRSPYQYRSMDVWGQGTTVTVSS VL: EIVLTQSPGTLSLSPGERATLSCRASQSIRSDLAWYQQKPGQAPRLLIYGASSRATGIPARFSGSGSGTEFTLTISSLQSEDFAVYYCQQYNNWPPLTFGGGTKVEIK
Response: 0.971

Prompt: # repeat for 40511p1.1.D8 (scFv, V domains shown, Tested as scFv-Fc (Expi293 supernatant)) VH: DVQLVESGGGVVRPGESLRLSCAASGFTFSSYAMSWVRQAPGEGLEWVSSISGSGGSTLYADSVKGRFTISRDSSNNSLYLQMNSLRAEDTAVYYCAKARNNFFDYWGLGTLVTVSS VL: EIVLTQSPGTLTLSPGERATLSCRASRSILTSLAWYQQRPGQAPRLLIYGANSRATGIPDRFSGSGSGTEFTLTISSLQSEDFAVYYCQQYYDWLTITFGGGTKVEIK
Response: 2.39

Prompt: Now this one: 40633p1.1.G7 (scFv, V domains shown, Tested as scFv-Fc (Expi293 supernatant)) VH: EVQLLESGGGLVQPGGSLRLSCAASGFTFSGSAMNWVRQAPGKGLEWVSAINSGGTTIYYADSVKGRFTVSRDNSKNTLYLQMNSLRAEDTAVYYCVKLDFYYGMDVWGEGTTVTVSS VL: QSVVTQPPSASGTPGQRVTVSCSGSSSNVGSKYVQWYQQLPGTAPKLLIYATDRRPSGVPDRFSGSKSGTSASLAISGLQSEDEADYYCASWDDSLNAWVFGGGTKLTVL
Response: 1.15

Prompt: Moving on to the next binder: 40579p1.D1 (scFv, V domains shown, Tested as scFv-Fc (Expi293 supernatant)) VH: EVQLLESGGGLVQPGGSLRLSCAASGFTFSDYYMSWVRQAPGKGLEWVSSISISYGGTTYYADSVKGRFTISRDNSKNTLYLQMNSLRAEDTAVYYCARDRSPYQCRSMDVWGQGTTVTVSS VL: EIVLTQSPGSLSLSPGERATLSCRASQSVNSDLAWYQQKPGQAPRLLIYAASSRATGIPARFSGSGSGTEFTLTISSLQSEDFAVYYCQQYNNWPPLTFGGGTKVEIK
Response: 1.74
